# method: melting temperature; fluorescence melt of hairpins on a sequencing array, two-state fit, raised by 9.35 °C to match UV melts
# run conditions: sodium 0.088 M
So basically: is Tm under 50 °C? Then 1 (yes). Not under? Then 0 (no).

// below: answered sequences
Exercise: Here's an entry: GTCGCAGGAAACCACGAC ((((..(....)..)))) . Is its Tm below 50 °C?
Solution: 1 (yes)

Exercise: Another: GATATGGGAAACTATATC (((((.(....).)))))
Solution: 1 (yes)

Exercise: Param item: GATCATCCGGATGATC ((((((....))))))
Solution: 0 (no)

Continue with the sequence presented below.
Exercise: Determine if GATCCTATGTAGGATC ((((((....)))))) shows Tm strictly lower than 50 °C.
Solution: 0 (no)
